EXPERIMENTAL_SYSTEM: Carbonic anhydrase (Candida albicans (strain SC5314 / ATCC MYA-2876) (Yeast))
Sequence (Q5AJ71 whole entry): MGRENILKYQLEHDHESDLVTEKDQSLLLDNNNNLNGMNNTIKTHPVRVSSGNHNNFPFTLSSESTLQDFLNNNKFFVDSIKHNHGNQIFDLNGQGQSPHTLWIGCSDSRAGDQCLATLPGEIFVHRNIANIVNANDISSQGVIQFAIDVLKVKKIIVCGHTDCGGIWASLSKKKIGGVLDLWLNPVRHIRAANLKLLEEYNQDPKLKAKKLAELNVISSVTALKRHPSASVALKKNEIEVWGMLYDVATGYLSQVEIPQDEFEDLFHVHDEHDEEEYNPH
Response field label takes T when Ki is strictly below 40 µM and F in all other cases.

INSERT INTO results (compound, discrete_label) VALUES
  ('OB(O)c1ccc2ccccc2c1', 'T'),
  ('Cc1ccc(/C=C/B(O)O)cc1', 'F');

Record OB(O)/C=C/c1ccccc1 [STYRYLBORONIC ACID] : is its Ki strictly below 40 µM? F

Record COc1ccc(B(O)O)cc1 : is its Ki strictly below 40 µM? T
